Data origin: paper PMC9667588

# key: entry, value: melting point

>>> value("CCc1ccc(NC(=O)COc2ccc(-c3nc4ccccc4c(=O)[nH]3)cc2OC)cc1")
"195 to 197 °C"
>>> value("COc1cc(-c2nc3ccccc3c(=O)[nH]2)ccc1OCC(=O)Nc1ccc(C)cc1")
"199 to 201 °C"
>>> value("COc1cc(-c2nc3ccccc3c(=O)[nH]2)ccc1OCC(=O)Nc1ccc(Br)cc1")
"203 to 205 °C"

Return melting point (reported value) for this molecule: COc1cc(-c2nc3ccccc3c(=O)[nH]2)ccc1OCC(=O)NCc1ccc(F)cc1
224 to 226 °C
